test system: MDA-MB-231 (breast cancer); test: Antiproliferative activity (CCK-8 cell viability), MDA-MB-231; type: cell-based; settings: Homo sapiens, Compound concentration: 10 μM, 72 h, read-out: Antiproliferative activity in cancerous cells, MDA-MB-231 (inhibition of cell growth)
inhibition at 10 µM values by entry

Below, each entry is followed by its recorded inhibition at 10 µM result.
INSERT INTO measurements (compound, result) VALUES
  ('COc1ccc2c(c1)C(CC(=O)O)=C(C)/C2=C/c1cccc(COc2ccccc2)c1 [B20]', '30 to 50%'),
  ('CC1=C(CC(=O)O)c2cc(F)ccc2/C1=C\c1cccc(Oc2ccc3ccccc3c2)c1 [C99]', '30 to 50%'),
  ('CC1=C(CC(=O)O)c2cc(F)ccc2/C1=C\c1ccc(Cc2cc3ccccc3o2)cc1 [C311]', '≥ 50%'),
  ('CCCC1=C(CC(=O)O)c2cc(F)ccc2/C1=C\c1ccc(Oc2ccc(F)cc2)cc1 [C8]', '≥ 50%'),
  ('CCCC1=C(CC(=O)O)c2cc(F)ccc2/C1=C\c1cccc(Oc2ccccc2)c1 [C22]', '≥ 50%');

Lookup: inhibition at 10 µM / MDA-MB-231 (breast cancer) / CCc1ccc(Oc2ccc(/C=C3\C(C)=C(CC(=O)O)c4cc(Cl)ccc43)cc2)cc1 [E31]
≥ 50%

Lookup: inhibition at 10 µM / MDA-MB-231 (breast cancer) / CC1=C(CC(=O)O)c2cc(F)ccc2/C1=C\c1ccc(OCc2cc3ccccc3s2)cc1 [B70]
≥ 50%

Lookup: inhibition at 10 µM / MDA-MB-231 (breast cancer) / COc1ccc2c(c1)/C(=C\c1ccc(Oc3ccc(F)cc3)cc1)C(C)=C2CC(=O)O [C1]
≥ 50%

* * *

inhibition at 30 µM values by entry
system: A431 (epidermoid carcinoma); experiment: Antiproliferative activity (CCK-8 cell viability), A431; format: cell-based; conditions: Homo sapiens, A-431, Compound concentration: 30 μM, 72 h, read-out: Antiproliferative activity in cancerous cells, A431

Below, each entry is followed by its recorded inhibition at 30 µM result.
INSERT INTO measurements (compound, parameter_measured, result) VALUES
  ('CC1=C(CC(=O)O)c2cc(F)c(F)cc2/C1=C\c1ccc(COc2ccc(F)cc2)cc1 [B53]', 'inhibition at 30 µM', '30 to 50%'),
  ('CC1=C(CCOC(=O)N(C)N)c2cc(F)ccc2/C1=C\c1ccc(Oc2ccc(F)cc2)cc1 [A205]', 'inhibition at 30 µM', '30 to 50%'),
  ('CC1=C(CC(=O)O)c2cc(Cl)ccc2/C1=C\c1ccc(COc2ccc(F)cc2)cc1 [B57]', 'inhibition at 30 µM', '30 to 50%'),
  ('CC1=C(CC(=O)O)c2cc(F)ccc2/C1=C\c1ccc([S+]([O-])c2ccc(F)cc2)cc1 (centres unmarked) [C45]', 'inhibition at 30 µM', '< 30%');

Reported inhibition at 30 µM, compound O=C(O)CC1=C(Cc2ccc(Oc3ccc(F)cc3)cc2)/C(=C/c2ccc(CN3CCOCC3)cc2)c2ccc(F)cc21 [A113] : ____
< 30%

Reported inhibition at 30 µM, compound COc1ccc2c(c1)C(CC(=O)O)=C(C)/C2=C/c1ccc(COc2ccc(F)cc2)cc1 [B54] : ____
30 to 50%

Reported inhibition at 30 µM, compound COc1ccc2c(c1)C(CC(=O)O)=C(C)/C2=C/c1cccc(COc2ccccc2)c1 [B20] : ____
< 30%

Reported inhibition at 30 µM, compound COc1ccc(Oc2ccc(/C=C3/C(C)=C(CC(=O)O)c4cc(F)ccc43)cn2)cc1 [C35] : ____
< 30%

Reported inhibition at 30 µM, compound CC1=C(CC(=O)O)c2cc(F)ccc2/C1=C\c1cccc(C[S+]([O-])c2ccc(F)cc2)c1 (centres unmarked) [B50] : ____
30 to 50%

Reported inhibition at 30 µM, compound CC1=C(CC(=O)O)c2cc(F)ccc2/C1=C\c1cccc(CNc2ccccc2)c1 [B14] : ____
30 to 50%
